Reference source for all entries: PubChem BioAssay AID2060625

Tested on: 186277-243-T-J2-PDC spheroids with HUVEC/MSC, viability;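 further: compound exposure lasted seven days before readout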
procedure.summary: Anticancer human tumor 186277-243-T-J2-PDC patient-derived colon adenocarcinoma cell line growth inhibition [CLK]; active means viability on the fitted dose curve at most 10% of control; inactive means the rest
stated.conditions: second compound 10 µM; first compound 0.1 µM
Outcomes: active, inactive

INSERT INTO measurements (compound, class_name) VALUES
  ('COc1cccc2c1C(=O)c1c(O)c3c(c(O)c1C2=O)CC(O)(C(=O)CO)CC3OC1CC(N)C(O)C(C)O1 (stereo not drawn) + CNC(=O)c1ccc(Nc2nc(OC3CCCC3)c3c(-c4ccc5nc(C)oc5c4)c[nH]c3n2)c(OC)c1', 'inactive'),
  ('O=C(c1cc(Cc2n[nH]c(=O)c3ccccc23)ccc1F)N1CCN(C(=O)C2CC2)CC1 + CN1CCN(c2cc(C(=O)Nc3cc4cc(-c5cnn(C)c5)ccc4cn3)ccn2)CC1', 'active'),
  ('CCN1CCN(Cc2ccc(Nc3ncc(F)c(-c4cc(F)c5nc(C)n(C(C)C)c5c4)n3)nc2)CC1 + CN1CCN(c2cc(C(=O)Nc3cc4cc(-c5cnn(C)c5)ccc4cn3)ccn2)CC1', 'active'),
  ('CC(CO)NC(=O)c1cc(-c2ccc(Cl)cc2)nn(-c2cnn(C)c2)c1=O (stereo not drawn) + CN1CCN(c2cc(C(=O)Nc3cc4cc(-c5cnn(C)c5)ccc4cn3)ccn2)CC1', 'active'),
  ('C=C(F)C(=O)N1CCN(c2nc(OCC3CCCN3C)nc3c2CCN(c2cccc4cccc(Cl)c24)C3)CC1CC#N (stereo not drawn) + CNC(=O)c1ccc(Nc2nc(OC3CCCC3)c3c(-c4ccc5nc(C)oc5c4)c[nH]c3n2)c(OC)c1', 'inactive'),
  ('CCCS(=O)(=O)Nc1ccc(F)c(C(=O)c2c[nH]c3ncc(-c4ccc(Cl)cc4)cc23)c1F + CNC(=O)c1ccc(Nc2nc(OC3CCCC3)c3c(-c4ccc5nc(C)oc5c4)c[nH]c3n2)c(OC)c1', 'inactive'),
  ('C=CC(=O)N1CCN(c2nc(=O)n(-c3c(C)ccnc3C(C)C)c3nc(-c4c(O)cccc4F)c(F)cc23)C(C)C1 (stereo not drawn) + CN1CCN(c2cc(C(=O)Nc3cc4cc(-c5cnn(C)c5)ccc4cn3)ccn2)CC1', 'active'),
  ('Cn1ncnc1[C@H]1c2n[nH]c(=O)c3cc(F)cc(c23)N[C@@H]1c1ccc(F)cc1 + CNC(=O)c1ccc(Nc2nc(OC3CCCC3)c3c(-c4ccc5nc(C)oc5c4)c[nH]c3n2)c(OC)c1', 'inactive');
